Source of measurements: patent US11926640B2

# Method Description: in vitro metabolic stability in monkey plasma
# Details: 30 min and 60 min
Metric Name: stability in monkey plasma (in words)

| Molecule | Assay Result |
| --- | --- |
| CC(C)OC(=O)[C@H](CCC(=O)C=[N+]=[N-])NP(=O)(Oc1ccccc1)Oc1ccccc1 | stable |
| CC(C)OC(=O)C(CCC(=O)C=[N+]=[N-])NP(=O)(NC(CCC(=O)C=[N+]=[N-])C(=O)OC(C)C)Oc1ccccc1 (stereo not shown) | stable |

###

# Method Description: in vitro metabolic stability in monkey plasma
# Details: prodrug remaining within the 60 min incubation time, monkey plasma
Reported PLASMA STABILITY Monkey by item:
Give a bare numeral; the unit % is implied.

| Compound | Metric Name | Assay Result |
| --- | --- | --- |
| CCOC(=O)[C@H](CCC(=O)C=[N+]=[N-])NC(=O)OCc1oc(=O)oc1C | PLASMA STABILITY Monkey | 0 |
| CC(C)OC(=O)[C@H](CCC(=O)C=[N+]=[N-])NC(=O)[C@@H](N)Cc1c[nH]c2ccccc12 (stereo in doubt) | PLASMA STABILITY Monkey | 10 |
| CC(C)C[C@H](N)C(=O)N[C@@H](CCC(=O)C=[N+]=[N-])C(=O)OC(C)C | PLASMA STABILITY Monkey | 1 |
| CC(C)OC(=O)[C@H](CCC(=O)C=[N+]=[N-])NC(=O)OCOC(=O)C(C)(C)C | PLASMA STABILITY Monkey | 0 |
| CCOC(=O)[C@H](CCC(=O)C=[N+]=[N-])NC(=O)[C@@H](N)Cc1c[nH]c2ccccc12 | PLASMA STABILITY Monkey | 4 |
| CC(C)OC(=O)[C@H](CCC(=O)C=[N+]=[N-])NC(=O)OC(C)OC(=O)C(C)(C)C (single isomer, unassigned) [Compound 14b] | PLASMA STABILITY Monkey | 61 |
| CCOC(=O)[C@H](CCC(=O)C=[N+]=[N-])NC(=O)OC(C)OC(=O)C(C)(C)C (mixture of isomers) | PLASMA STABILITY Monkey | 75 |

q: Report PLASMA STABILITY Monkey, nothing else, for this compound: "Cc1oc(=O)oc1COC(=O)N[C@@H](CCC(=O)C=[N+]=[N-])C(=O)OC(C)C"
a: 0

###

# Method Description: in vitro metabolic stability in human plasma
# Details: prodrug remaining within the 60 min incubation time, human plasma
Could you mark each record 1 if its PLASMA STABILITY Human falls strictly under 9%, and -1 if it equals or exceeds it?

| Compound | Category Label |
| --- | --- |
| CC(C)OC(=O)[C@H](CCC(=O)C=[N+]=[N-])NC(=O)OC(C)OC(=O)C(C)(C)C (single isomer, unassigned) [Compound 14b] | -1 |

q: Does this compound meet the criterion PLASMA STABILITY Human < 9%? "CCOC(=O)[C@H](CCC(=O)C=[N+]=[N-])NC(=O)[C@@H](N)Cc1c[nH]c2ccccc12"
a: -1

q: Does this compound meet the criterion PLASMA STABILITY Human < 9%? "CCOC(=O)[C@H](CCC(=O)C=[N+]=[N-])NC(=O)OCc1oc(=O)oc1C"
a: 1

q: Does this compound meet the criterion PLASMA STABILITY Human < 9%? CC(C)OC(=O)[C@H](CCC(=O)C=[N+]=[N-])NC(=O)[C@@H](N)Cc1c[nH]c2ccccc12 (stereo in doubt)
a: -1

q: Does this compound meet the criterion PLASMA STABILITY Human < 9%? CCOC(=O)[C@H](CCC(=O)C=[N+]=[N-])NC(=O)OC(C)OC(=O)C(C)(C)C (mixture of isomers)
a: -1

q: Does this compound meet the criterion PLASMA STABILITY Human < 9%? "CC(C)C[C@H](N)C(=O)N[C@@H](CCC(=O)C=[N+]=[N-])C(=O)OC(C)C"
a: 1

q: Does this compound meet the criterion PLASMA STABILITY Human < 9%? "Cc1oc(=O)oc1COC(=O)N[C@@H](CCC(=O)C=[N+]=[N-])C(=O)OC(C)C"
a: 1
